IC50 values for the compounds below.
test system: PATU-8902; experiment: MTT cell viability assay; assay type: cell-based; conditions: Homo sapiens, 48 h, normoxic (19% O2), read-out: IC50 MTT-N mean
Report as a plain number; the unit nM is understood.

Recorded results for 2 compounds are shown here.
| COMPOUND | IC50 [nM] |
| --- | --- |
| CCOc1c2c(c3ccc(C(=O)N(CC)CC)cn13)SSSSS2 [Compound 4] | 823 |
| CCOc1c2c(c3ccc(C(=O)N4CCN(C(=O)c5ccc(F)cc5)CC4)cn13)SSSSS2 [Compound 5] | 1200 |

Next up:
Ask | Give a short answer stating reported IC50 for CCOc1c2c(c3ccc(C(=O)N4CCOCC4)cn13)SSSSS2 [Compound 3] .
Reply | 1050

Reference for the values: paper PMC8305076
